# Test system: IGROV1 ovarian
# TEST: NCI tumour cell line growth inhibition, 48 h
REPORTED_ENDPOINT: TGI

# COMPOUND, REPORTED_ENDPOINT, VALUE
data = [
    ("C#COc1cccc(Nc2c(C#N)cnc3ncc(NC(=O)CCl)cc23)c1", "TGI", "> 62.5 µM"),
    ("O=S(=O)(Nc1ccc(F)cc1F)c1ccc(-c2cnc(C3CC3)o2)cc1", "TGI", "67.2 µM"),
    ("COc1ccc(C2OC(N)=C(C#N)C3=C2CCCC3C)cc1OC (configuration not stated)", "TGI", "> 100 µM"),
    ("COC(=O)C1(C(=O)OC)C/C(C)=C(/C)SCCCS1", "TGI", "> 100 µM"),
    ("COC(=O)[C@]12CCC(C)(C)C[C@H]1[C@H]1C(=O)C=C3[C@@]4(C)C=C(C#N)C(=O)C(C)(C)[C@@H]4CC[C@@]3(C)[C@]1(C)CC2", "TGI", "1.15 µM"),
    ("COc1ccc(CC2c3cc(OC)c(OC)cc3CC[N+]2(C)C)cc1OC (configuration not stated)", "TGI", "> 100 µM"),
    ("Cc1cc(C)c(NC(=O)c2sc3nc4c(cc3c2N)CN(Cc2ccccc2)CC4)c(C)c1", "TGI", "> 100 µM"),
    ("O=CN1CCN(CC(O)CN2CCCCC2)CC1 (configuration not stated)", "TGI", "> 100 µM"),
    ("CC1C[C@]2(C)C(=NCCN)Nc3ccccc3[C@@H]2N(C)c2ccccc21 (some centres not stated)", "TGI", "27.6 µM"),
    ("O=C(CSC1CCc2ccccc21)N/N=C/c1ccccc1O (configuration not stated)", "TGI", "37.4 µM"),
    ("CCOC(=O)c1c(NC(=O)c2cccc(C(F)(F)F)c2)sc2c(CN(C)C)c(O)ccc12", "TGI", "28.8 µM"),
    ("COc1c(OC(C)=O)c(OC(C)=O)cc2c1-c1ccc(SC)c(=O)cc1C(NC(C)=O)CC2 (configuration not stated)", "TGI", "> 100 µM"),
    ("Cc1nc2sc3c(c2c(=O)[nH]1)CCCC3", "TGI", "> 100 µM"),
    ("NCCSc1nc(-c2ccccc2)c(-c2ccccc2)o1", "TGI", "> 100 µM"),
    ("Cc1cc(S(=O)(=O)O)c(NC(=O)C(=O)Cc2cc(=O)oc3cc(O)ccc23)cc1Cl", "TGI", "> 100 µM"),
    ("N#Cc1[nH]c(=S)[nH]c1N", "TGI", "> 100 µM"),
    ("CC(=O)Oc1ccc2c(c1)c1c(=O)oc(C)nc1n2Cc1ccccc1", "TGI", "> 100 µM"),
    ("O=C(/C=C/c1ccc(OCc2cccc(Cl)c2)cc1)NO", "TGI", "38 µM"),
    ("COCC1(CO)C(=O)C2CCN1CC2 (configuration not stated)", "TGI", "40.6 µM"),
    ("CC(=O)O[C@H]1CCC2[C@@H]3CCC4Nc5oncc5C[C@]4(C)C3CC[C@@]21C (some centres not stated)", "TGI", "> 10 µM"),
    ("COC1(OC)CC2C(=O)N(Cc3ccccc3)C1C=C2S(=O)(=O)c1ccccc1 (configuration not stated)", "TGI", "> 100 µM"),
    ("COC(=O)c1c(C#N)[nH]c(-c2ccsc2)c1C(=O)OC", "TGI", "> 100 µM"),
]
